Data origin: patent US20120094899A1

Let's look at some binders and their measured IC50 ratio.
# testSystem: T1, Human FM3 (human, UniProt Q9HB89 1-426)
# T1 construct: whole, on cells; Assayed as the membrane fraction of FM3-expressing CHO cells (1.2 mg/mL protein); also called NMUR1; FM3 receptor
# T1 sequence (looked up): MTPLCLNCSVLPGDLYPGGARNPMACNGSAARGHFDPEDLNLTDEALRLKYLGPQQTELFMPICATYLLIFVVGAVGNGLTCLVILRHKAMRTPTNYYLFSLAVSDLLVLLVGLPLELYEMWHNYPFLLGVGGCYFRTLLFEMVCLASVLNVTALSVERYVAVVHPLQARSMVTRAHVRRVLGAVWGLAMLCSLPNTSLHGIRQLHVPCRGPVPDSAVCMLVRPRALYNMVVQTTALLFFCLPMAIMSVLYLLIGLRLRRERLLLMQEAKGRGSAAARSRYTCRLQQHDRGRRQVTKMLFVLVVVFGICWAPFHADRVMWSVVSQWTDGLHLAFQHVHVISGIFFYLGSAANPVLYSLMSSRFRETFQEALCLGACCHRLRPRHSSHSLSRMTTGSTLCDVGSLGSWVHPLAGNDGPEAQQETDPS
# protocolNotes: displacement of 125I-NMU8 from human FM3 CHO membrane fraction; IC50 relative to NMU-8;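 note: binding reaction run for 70 min at 25 °C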
Non-standard residues stand in square brackets, D forms with d. No end group written: not given here. PEG 30 kDa = methoxypolyethylene glycol 30k; Cha = N[C@@H](CC1CCCCC1)C(=O)O; NMeA = CN[C@@H](C)C(=O)O; βAla = NCCC(=O)O

INPUT: Endpoint output: IC50 ratio of {PEG 30 kDa-βAla}-YFRFRPRN-NH2 (also called PEG-NH-β-Ala0,Arg3-NMU-8) [PEG30k-NH-β-Ala0,Arg3-NMU-8 (Compound C)] . Value?
OUTPUT: 1.7 ratio to NMU-8 (=1)

INPUT: # input binder: {mPEG 30 kDa-βAla}-YF[Cha]FRPRN-NH2 (X stands for Cha; also called PEG-NH-β-Ala0,Cha3-NMU-8) [PEG30k-NH-β-Ala0,Cha3-NMU-8 (Compound F)] ; wanted: its IC50 ratio
OUTPUT: 1.3 ratio to NMU-8 (=1)

INPUT: IC50 ratio for [βAla]YFVFRPRN-NH2 (N-terminus assumed; SMILES CC(C)[C@H](NC(=O)[C@H](Cc1ccccc1)NC(=O)[C@H](Cc1ccc(O)cc1)NC(=O)CCN)C(=O)N[C@@H](Cc1ccccc1)C(=O)N[C@@H](CCCNC(=N)N)C(=O)N1CCC[C@H]1C(=O)N[C@@H](CCCNC(=N)N)C(=O)N[C@@H](CC(N)=O)C(N)=O) [β-Ala0,Val3-NMU-8 (Compound 4)] ?
OUTPUT: 0.43 ratio to NMU-8 (=1)

INPUT: Look at this binder and give its reported IC50 ratio. [βAla]YELFR[NMeA]RN-NH2 (N-terminus assumed; SMILES CC(C)C[C@H](NC(=O)[C@H](CCC(=O)O)NC(=O)[C@H](Cc1ccc(O)cc1)NC(=O)CCN)C(=O)N[C@@H](Cc1ccccc1)C(=O)N[C@@H](CCCNC(=N)N)C(=O)N(C)[C@@H](C)C(=O)N[C@@H](CCCNC(=N)N)C(=O)N[C@@H](CC(N)=O)C(N)=O) [β-Ala0,Glu2,NMeAla6-NMU-8 (Compound 18)]
OUTPUT: 26000 ratio to NMU-8 (=1)

INPUT: Data request, read-out IC50 ratio, for {PEG 30 kDa-βAla}-PFLFRPRN-NH2 (also called PEG-NH-β-Ala0,Pro1-NMU-8) [PEG30k-NH-β-Ala0,Pro1-NMU-8 (Compound H)]
OUTPUT: 9.4 ratio to NMU-8 (=1)
